B1: EEHEE_rd3_0130 (parent)
chain: TKIIVNGKTFTAPTEEEAQKIAEKLAKKAGLTVHKKNGTFELK

# Variants of: B1
# test_protocol: folding stability dG (cDNA display proteolysis); higher = more stable
# test_settings: PBS, room temperature
readout_name: folding stability dG (kcal/mol)
Entry rule: numbers only, all in kcal/mol.

Quick one: folding stability dG for K36F ?
0.986

Next record, please: I21L
0.99

How about N6G ?
1.02
